target.or.system: T1, rat PTH-1R (rat PTHR endogenously expressed on UMR-106 rat osteosarcoma cells) (rat, UniProt P25961 27-591)
T1 sequence (looked up): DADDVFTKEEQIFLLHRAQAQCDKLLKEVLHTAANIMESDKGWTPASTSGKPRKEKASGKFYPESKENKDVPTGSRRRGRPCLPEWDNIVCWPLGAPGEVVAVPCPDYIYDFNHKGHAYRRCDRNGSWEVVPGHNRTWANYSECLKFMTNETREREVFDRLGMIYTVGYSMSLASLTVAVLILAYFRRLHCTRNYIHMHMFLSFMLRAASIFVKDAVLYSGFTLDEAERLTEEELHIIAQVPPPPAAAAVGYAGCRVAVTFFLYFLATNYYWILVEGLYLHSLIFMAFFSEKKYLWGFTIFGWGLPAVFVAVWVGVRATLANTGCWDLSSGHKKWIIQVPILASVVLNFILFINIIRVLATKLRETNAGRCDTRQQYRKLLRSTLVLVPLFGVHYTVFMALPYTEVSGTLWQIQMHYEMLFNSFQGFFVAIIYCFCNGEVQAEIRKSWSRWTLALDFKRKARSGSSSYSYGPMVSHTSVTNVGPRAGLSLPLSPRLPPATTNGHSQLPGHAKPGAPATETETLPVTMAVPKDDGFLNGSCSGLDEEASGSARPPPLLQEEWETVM
assay: cell-based or functional assay
Where no end group is shown, it is not given here. [ ]: non-standard residue; d: D form. Bip(2'-Et-4'-OMe) = CCc1cc(OC)ccc1-c1ccc(C[C@H](N)C(=O)O)cc1; Arg(NO2) = N=C(NCCC[C@H](N)C(=O)O)N[N+](=O)[O-]; αMePhe(2,6-F2) = C[C@](N)(Cc1c(F)cccc1F)C(=O)O; αMePhe(2-F) = C[C@](N)(Cc1ccccc1F)C(=O)O; hhPhe = N[C@@H](CCCc1ccccc1)C(=O)O; hArg = N=C(N)NCCCC[C@H](N)C(=O)O; Cit = NC(=O)NCCC[C@H](N)C(=O)O; Nle = CCCC[C@H](N)C(=O)O; Orn = NCCC[C@H](N)C(=O)O; Ac5c = NC1(C(=O)O)CCCC1; Aib = CC(C)(N)C(=O)O
Listing of entries alongside the reported cAMP released with respect to control, 10 nM peptide, UMR-106 cells.

Guide cases for cAMP released with respect to control, 10 nM peptide, UMR-106 cells, answers given:
binder: [Ac5c]V[Aib]EIQ[αMePhe(2,6-F2)][Nle]HQ[hArg]A[Cit][Bip(2'-Et-4'-OMe)][hhPhe] [Seq. ID. 813]
data.value: 109 percent of control

binder: [Aib]V[Aib]EIQ[αMePhe(2,6-F2)][Nle]HQ[hArg][Aib][αMePhe(2,6-F2)][αMePhe(2-F)] [Seq. ID. 212]
data.value: 88 percent of control

binder: [Aib]V[Aib]EIQ[αMePhe(2,6-F2)][Nle]HQ[hArg]A[Arg(NO2)][αMePhe(2,6-F2)] [Seq. ID. 271]
data.value: 108 percent of control

Given the entry [Aib]V[Aib]EIQ[αMePhe(2-F)][Nle]HQ[Orn][Aib][Arg(NO2)][αMePhe(2-F)] [Seq. ID. 330] , report its measured cAMP released with respect to control, 10 nM peptide, UMR-106 cells.
51 percent of control

Given the entry [Aib]V[Aib]EIQ[αMePhe(2,6-F2)][Nle]HQ[Aib][Aib][Arg(NO2)][αMePhe(2,6-F2)] [Seq. ID. 598] , report its measured cAMP released with respect to control, 10 nM peptide, UMR-106 cells.
79 percent of control
